Values were extracted from ChEMBL document CHEMBL5223068.

test: Inhibition of urease (unknown origin) incubated for 30 mins by microplate reader based analysis
Could you please mark fulfilled for values of IC50 below 50 µM and not fulfilled for values at or above it?

Reference set, count: 10
O=C(CC1C(=O)NC(=S)NC1=O)Nc1ccccc1
fulfilled
O=C(CC1C(=O)NC(=S)NC1=O)N/N=C/c1ccccc1O
not fulfilled
O=C(CC1C(=O)NC(=S)NC1=O)OCc1ccccc1
not fulfilled
NC(=O)NNC(=O)CC1C(=O)NC(=S)NC1=O
fulfilled
O=C(CC1C(=O)NC(=S)NC1=O)N/N=C/c1ccccc1
not fulfilled
COC(=O)c1ccc(NC(=O)CC2C(=O)NC(=S)NC2=O)cc1
fulfilled
Cc1ccccc1NC(=O)CC1C(=O)NC(=S)NC1=O
not fulfilled
CCCNC(=O)CC1C(=O)NC(=S)NC1=O
fulfilled
CCOC(=O)CC1C(=O)NC(=S)NC1=O
fulfilled
Cc1cccc(NC(=O)CC2C(=O)NC(=S)NC2=O)c1
not fulfilled

Incoming: Take the compound Cc1ccc(/C=N/NC(=O)CC2C(=O)NC(=S)NC2=O)cc1 and say whether its IC50 is less than 50 µM.
Outgoing: not fulfilled

Incoming: Take the compound Cc1ccc(NC(=O)CC2C(=O)NC(=S)NC2=O)c(C)c1 and say whether its IC50 is less than 50 µM.
Outgoing: not fulfilled
